- System: EMT6 tumor-bearing model mice
- ASSAY_METHOD_TEXT: Biodistribution in tumor and organs of tumor-bearing mouse (Example 14)
- Assay type: in vivo, mouse (Balb/c nu/nu)
- TEST_PARAMETERS: 60 minutes after administration, mean
ENDPOINT_NAME: Tumor (% ID/g)

See these solved cases before continuing.
1. O=[N+]([O-])c1nccn1CCC(CO)(CO)C[18F] [Compound 3]: 2.05
2. O=[N+]([O-])c1nccn1CC(O)C[18F] (stereo not shown) [[^18F]FMISO, [^18F]fluoromisonidazole, reference compound]: 4.71

1: O=[N+]([O-])c1nccn1CC(CO)(CO)C[18F] [Compound 1]
2: O=[N+]([O-])c1nc(CO)cn1CC(CO)(CO)C[18F] [Compound 2]
Inquiry: Between the entries labelled 1 and 2 , which has a larger Tumor value on record? Kindly give the label for the entry you pick.
Reply text: 1
